- assayed-system: TLR2/TLR6 (Mus musculus) (UniProt Q9QUN7+Q9EPW9)
- test-description: Inhibition of TLR2/6 in BALB/c mouse BMDM assessed as downregulation of BLP-stimulated IL-12p40 level at 5 ug/ml preincubated for 18 hrs followed by BLP challenge measured after 24 hrs by ELISA relative to control
- Format: protein-complex assay
Active and inactive are the calls of the source. The rule behind the calls is not given here.
Classes used: active, inactive

smiles_entry=O=S(=O)(CCN1CCOCC1)Nc1ccccc1 class_label=inactive
smiles_entry=CN(C)CCS(=O)(=O)NCc1ccc(F)cc1 class_label=inactive
smiles_entry=COc1ccc2c(CS(=O)(=O)NCCN3CCCC3)cc(=O)oc2c1 class_label=active
smiles_entry=O=S(=O)(CCN1CCCC1)NCc1ccc(F)cc1 class_label=inactive
smiles_entry=O=S(=O)(CCN1CCOCC1)Nc1ccc(F)cc1 class_label=inactive
smiles_entry=COc1cccc(C(=O)NCCN(C)C)c1 class_label=active
smiles_entry=CN(C)CCS(=O)(=O)Cc1ccc(F)cc1 class_label=active
smiles_entry=C[N+](C)(C)CCS(=O)(=O)Cc1ccc(Br)cc1 class_label=inactive
smiles_entry=O=S(=O)(Cc1ccc(F)cc1)NCCN1CCCC1 class_label=inactive
smiles_entry=CN(C)CCCOP(=O)(O)Oc1ccc(NC(=O)OC(C)(C)C)cc1 class_label=inactive
smiles_entry=O=S(=O)(CCCN1CCCC1)Cc1ccc(Br)cc1 class_label=inactive
smiles_entry=Cc1ccc(CS(=O)(=O)CC[N+]2(C)CCCC2)cc1 class_label=active
smiles_entry=O=S(=O)(CCN1CCCC1)Nc1ccccc1 class_label=inactive
smiles_entry=CC[C@H](C)NCCS(=O)(=O)Cc1ccc(Br)cc1 class_label=active
smiles_entry=O=[N+]([O-])c1ccc(CNS(=O)(=O)CCN2CCCC2)cc1 class_label=inactive
smiles_entry=CN(C)CCCNC(=O)Cc1ccccc1 class_label=inactive
smiles_entry=O=S(=O)(CCN1CCOCC1)NCc1ccc(F)cc1 class_label=inactive
smiles_entry=O=S(=O)(Cc1ccc(Br)cc1)NCCN1CCCC1 class_label=inactive
smiles_entry=CN(C)CCN(C)CCS(=O)(=O)Nc1ccccc1 class_label=inactive
smiles_entry=O=S(=O)(CCCN1CCOCC1)Cc1ccc(Br)cc1 class_label=inactive
smiles_entry=CN(C)CCNC(=O)Cc1ccccc1 class_label=inactive
smiles_entry=O=S(=O)(CCN1CCCC1)Cc1ccc(F)cc1 class_label=active
smiles_entry=O=S(=O)(CCN1CCCC1)NCc1ccc(Br)cc1 class_label=inactive
smiles_entry=COc1cccc(C(=O)NCCN2CCCC2)c1 class_label=active
smiles_entry=O=C(CCN1CCOCC1)NCc1cccc2cnccc12 class_label=active
